These data points were gathered from the supplement of paper PMC11061612.

System: CFPAC-1 (Pancreatic Carcinoma);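 further: after 72 h of two-drug dosing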
procedure.details: Bliss excess, mean over the matrix (fraction); higher = more synergy
recorded.endpoint: Bliss excess
Give a plain numeric answer without units written out.

Below: 6 compounds and their reported Bliss excess.
input: Fill in Bliss excess for record Cc1cc2ncnn2cc1Nc1ncc2c(n1)n(C1CCOCC1)c(=O)n2C [AZD7648] + CCN(CCO)CCCOc1ccc2c(Nc3cc(CC(=O)Nc4cccc(F)c4)[nH]n3)ncnc2c1 [AZD2811] (first compound max 10 µM, 7x7, partner max 1 µM)
output: 0.0181

input: Provide Bliss excess value for the following compound: CC1(C)CCC(CN2CCN(c3ccc(C(=O)NS(=O)(=O)c4ccc(NCC5CCOCC5)c([N+](=O)[O-])c4)c(Oc4cnc5[nH]ccc5c4)c3)CC2)=C(c2ccc(Cl)cc2)C1 [Venetoclax] + C[C@@H]1COCCN1C2=NC(=NC(=C2)C3(CC3)[S@](=N)(=O)C)C4=C5C=CNC5=NC=C4 [AZD6738] (first compound max 1 µM, 7x7, partner max 10 µM)
output: 0.015

input: Consider the compound Cc1cc2ncnn2cc1Nc1ncc2c(n1)n(C1CCOCC1)c(=O)n2C [AZD7648] + CN(C)CCCOc1ccc(-c2ccc3ncc4c(c3c2)n(C2CCOCC2)c(=O)n4C)cn1 [AZD0156] (first compound max 10 µM, 7x7, partner max 1 µM) . State its measured Bliss excess.
output: 0.0064

input: Give recorded Bliss excess. CCN(CCO)CCCOc1ccc2c(Nc3cc(CC(=O)Nc4cccc(F)c4)[nH]n3)ncnc2c1 [AZD2811] + C[C@@H]1COCCN1C2=NC(=NC(=C2)C3(CC3)[S@](=N)(=O)C)C4=C5C=CNC5=NC=C4 [AZD6738] (first compound max 1 µM, 7x7, partner max 10 µM)
output: -0.0932

input: Input CN(C)CCCOc1ccc(-c2ccc3ncc4c(c3c2)n(C2CCOCC2)c(=O)n4C)cn1 [AZD0156] + CCN(CCO)CCCOc1ccc2c(Nc3cc(CC(=O)Nc4cccc(F)c4)[nH]n3)ncnc2c1 [AZD2811] (first compound max 1 µM, 7x7, partner max 1 µM) , output reported Bliss excess.
output: -0.0713

input: For the compound Cc1nc(Nc2ncc(C(=O)Nc3c(C)cccc3Cl)s2)cc(N2CCN(CCO)CC2)n1 [Dasatinib] + CC(=O)Nc1cccc(-n2c(=O)n(C3CC3)c(=O)c3c(Nc4ccc(I)cc4F)n(C)c(=O)c(C)c32)c1 [Trametinib] (first compound max 2 µM, 7x7, partner max 1 µM) , give its measured Bliss excess value.
output: 0.106

Next:
input: Assign Bliss excess to the following record: NC1(C(=O)N[C@@H](CCO)c2ccc(Cl)cc2)CCN(c2ncnc3[nH]ccc23)CC1 [Capivasertib] + CC(=O)c1c(C)c2cnc(Nc3ccc(N4CCNCC4)cn3)nc2n(C2CCCC2)c1=O [Palbociclib] (first compound max 10 µM, 7x7, partner max 10 µM)
output: -0.0758
